# Test system: BT-549 breast
# Test Details: NCI tumour cell line growth inhibition, 48 h
Readout Label: TGI

Previously resolved entries follow.
Kindly note the recorded TGI for Cc1cn(CCCCCCC2=NCCCN2)c(=O)[nH]c1=O , which is > 100 µM

Cc1c(-c2ccccc2)nn2cc(-c3ccccc3)nnc12 yielded TGI of 87.3 µM

Value of measured TGI for the entry CCCCCc1nnc(NS(=O)(=O)c2ccc(NC(=O)OCC(C)C)cc2)s1 : > 100 µM

Note to self: TGI recorded for ON(Cc1ccccc1)C(=S)c1ccccc1 was > 100 µM

For record CC(=O)OCC1OC(OCCCCCCO)C(OC(C)=O)C(OC(C)=O)C1OC(C)=O (stereo unspecified) the listed TGI is > 100 µM

Consider the additional molecule presented here.
Measured TGI, CSc1c(C#N)c(N)nc2c(N=Nc3ccc(Br)cc3)c(N)nn12 : 37.3 µM

====

# System: TK-10 renal
# Test Details: NCI tumour cell line growth inhibition, 48 h
Readout Label: TGI

// below: answered molecules
Value of TGI reported for the molecule CCCCC(C)C(OC(=O)CC(CC(=O)O)C(=O)O)C(CC(C)CC(O)CCCCC(O)CC(O)C(C)N)OC(=O)CC(CC(=O)O)C(=O)O (stereo not drawn) is > 100 µM

TGI measured on O=S(=O)(O)c1ccc(N=Nc2nc(C(F)(F)F)c(C(F)(F)F)[nH]2)cc1 = > 100 µM

Consider the record given below.
For this molecule ( COC(=O)[C@H]1NC(=O)CCSSC1(C)C ), measured TGI is > 100 µM

====

# System: UACC-62 melanoma
# Test Details: NCI tumour cell line growth inhibition, 48 h; in the data active = GI50 below about 0.43 µM; inactive = the rest
Give your call using only these classes: active, inactive

Solved entries:
Data request: Please let me know the test result on file for COc1ccc(S(=O)(=O)NC2=NCCN2C(=S)SN2CCn3c2nsc3=S)cc1 .
Data returned: inactive

Data request: What is the recorded call for this compound in the test? Oc1ccc(-c2nc3ccc4[nH]ncc4c3c3c2CCCC3)c(F)c1
Data returned: inactive

Data request: Look up the recorded call for Cc1ccc(/C=C2\CN(C(=O)C(Cl)Cl)C/C(=C\c3ccc(C)cc3)C2=O)cc1 in this test.
Data returned: active

Data request: Recorded test outcome, item CCC(c1ccc(OC)cc1)C(CC)c1ccc(O)c(CN2CCN(C)CC2)c1 (stereo not given)
Data returned: inactive

Turning to the following compound.
Data request: So what was the verdict on Nc1nc(N)c(C=Nc2ccc(Br)cc2)c(Nc2ccc(Br)cc2)n1 in this test?
Data returned: inactive

====

# Test system: NCI-H226 lung
# Test Details: NCI tumour cell line growth inhibition, 48 h
Readout Label: TGI

Documented TGI of O=[N+]([O-])c1ccc(Oc2nc(Nc3ccc(O[C@H]4CO[C@H]5[C@@H]4OC[C@@H]5O)c(Cl)c3)ncc2F)c(Cl)c1 : 2.5 µM

TGI for CCOC(=O)c1sc2nc(SC)nc3c2c1NCN3c1ccc(F)c(F)c1 is > 79.9 µM

Per the record, COc1cc2c(cc1OC)C(Sc1ccc(SC)cc1)c1c(nc(N)c(C#N)c1N)O2 (stereo not given) has TGI of 3.04 µM

Value of TGI reported for the compound COC(=O)C1OC2(CCCC3CC32)O[C@H]1C(=O)OC (stereo not given in full) is > 100 µM

Lookup result for COc1cc(C2c3cc4c(cc3OC(Nc3ccccc3)C2C)OCO4)cc(OC)c1O (stereo not given) ; measured TGI: 39.8 µM

More entries:
Sure, the documented TGI for COc1cccc2c1-c1c(c3ccc([N+](=O)[O-])cc3c(=O)n1CCCN)C2=O is 34.3 µM

Item: CSCCCS/C1=C/CCCCCCCCCC1 | TGI: > 100 µM

// sample Cc1noc2c1C(=O)CCC2 , its TGI was > 100 µM

Quick note, TGI for Cc1ccc(NC(=O)C(Cc2c[nH]c3ccccc23)NC(=O)Oc2ccccc2)cc1C (stereo not given) landed at > 100 µM

Memo: O=[N+]([O-])c1ccc(C(Nc2ccccc2)P(c2ccccc2)c2ccccc2)cc1 (stereo not given) , reported TGI: > 100 µM

====

# Tested on: LXFL 529 NSCLC
# Test Details: NCI tumour cell line growth inhibition, 48 h
Readout Label: TGI

Looking up O=C(CSc1ncn[nH]1)C[P+](c1ccccc1)(c1ccccc1)c1ccccc1 , I see its TGI listed as > 100 µM

# TGI (molecule: N#CC1CCCCOCCOCCOCCOCCOCCCCCC1=O (stereo not drawn) ) is > 100 µM

Field TGI (entry NC(=O)c1c([N+](=O)[O-])cc(C(F)(F)F)cc1[N+](=O)[O-] ) reads > 100 µM

Input CCCCC(C)C(OC(=O)CC(CC(=O)O)C(=O)O)C(CC(C)CC(O)CCCCC(O)CC(O)C(C)N)OC(=O)CC(CC(=O)O)C(=O)O (stereo not drawn) . Output TGI: > 100 µM

Looking up O=C1c2ccccc2C(=O)c2c(O)c(NCCCNCCO)cc(O)c21 , I see its TGI listed as 29.8 µM

More entries:
Record summary for O=[N+]([O-])c1ccc(Cl)c(C2CC(c3cccc4ccccc34)=Nc3ccccc3S2)c1 (stereo not drawn) : reported TGI = 88.9 µM

Looking up CCCC(C)n1c(C)nc2c1C(=O)c1ccccc1C2=O (stereo not drawn) , I see its TGI listed as > 100 µM

TGI measured on O=C(CCC(=O)Nc1ccc(Cl)c(Cl)c1)CC(=O)c1ccc(F)cc1 = > 100 µM

====

# System: OVCAR-4 ovarian
# Test Details: NCI tumour cell line growth inhibition, 48 h; in the data active = GI50 below about 0.43 µM; inactive = the rest
Mark one answer only. Choices: Yes (active), No (inactive)

Data request: Tell me the recorded outcome of this test for Nc1cc(O)ccc1N=Nc1ccc(-c2nc3ccccc3[nH]2)cc1 .
Data returned: No

====

# Test system: UACC-257 melanoma
# Test Details: NCI tumour cell line growth inhibition, 48 h
Readout Label: TGI (µM)
Your answer should be a plain number; it is taken to be in µM.

Item: C=CC(OC(C)=O)c1ccc(OC(=O)C(C)C)c(OC)c1 (stereo not drawn) | System: UACC-257 melanoma | TGI: 23.5

With UACC-257 melanoma as the test system, COC(=O)/C=C\C(C#N)(C#N)N=Cc1ccccc1 showed TGI of 12.8

Form field, TGI with UACC-257 melanoma, item COC1=C(C)C(=O)c2c(c(CCCl)c3n2CCC3O)C1=O (stereo not drawn) : 3.45

Item Nc1nc(N)c(C=Nc2ccc(Br)cc2)c(Nc2ccc(Br)cc2)n1 was tested on UACC-257 melanoma; the reported TGI is 30.7

// returns TGI for C=C1C(=O)O[C@H]2[C@H]3O[C@@H](C[C@@H]12)[C@@]1(C)CC[C@H](O1)[C@H](C)CCC[C@H]3C with UACC-257 melanoma; value = 3.41

Sample CCN(Cc1ccc(F)cc1)c1ccc(CO)c(C)c1 , system: UACC-257 melanoma. Its TGI is 15

Given the compound Cc1ccc(/C=C2\CN(C(=O)C(Cl)Cl)C/C(=C\c3ccc(C)cc3)C2=O)cc1 and test system UACC-257 melanoma, the measured TGI is 3.16

Tested on UACC-257 melanoma: CCCCCCNC(=O)Oc1ccc(/C(=C(/C)Cc2ccc(OC)cc2)c2ccc(OCCCN(C)C)cc2)cc1 . Observed TGI: 35.3

# NC(=O)c1c([N+](=O)[O-])cc(C(F)(F)F)cc1[N+](=O)[O-] with UACC-257 melanoma: TGI is 99.8

Value (TGI, UACC-257 melanoma) for record CCN1C(=O)CCCc2c1ccc(Nc1ncc(Cl)c(NC3[C@@H](C(N)=O)[C@@H]4C=C[C@H]3C4)n1)c2OC (stereo partly drawn) = 4.34

The compound N#Cc1c(Br)n(C2OC(CO)C(O)C2O)c2ncnc(N)c12 (stereo not drawn) , tested on UACC-257 melanoma, showed TGI of 38.5

Reading of TGI for S=C(Nc1ccc(N=Nc2ccccc2)cc1)SCc1ccccc1 with UACC-257 melanoma: 33.3

Param item: O=C(/C=C/c1ccco1)c1ccc(NCc2nc3ccccc3[nH]2)cc1 ; param system: UACC-257 melanoma; output TGI: 23.2

Item CCCC(C)n1c(C)nc2c1C(=O)c1ccccc1C2=O (stereo not drawn) ; assay system UACC-257 melanoma; TGI reported as 63.1

====

Overview of reported GI50 across a group of compounds:
# Test system: PC-3 prostate
# Test Details: NCI tumour cell line growth inhibition, 48 h

Examples from the recorded data:
// GI50 value for C=C1C(=O)O[C@H]2[C@H]1CC/C(COC(=O)CCSCCC(=O)OC/C1=C/CC[C@@]3(C)O[C@H]3[C@H]3OC(=O)C(=C)[C@@H]3CC1)=C\CC[C@@]1(C)O[C@@H]21 : 1820 nM

Notebook: COc1ccc2c(C3(c4cn(C)c5cc(OC)ccc45)C(=O)Nc4ccc(Cl)cc43)cn(C)c2c1 , GI50 read as 3650 nM

Just so you know, measured GI50 for COc1cc2c(cc1OC)C(Sc1ccc(SC)cc1)c1c(nc(N)c(C#N)c1N)O2 (centres undefined) came out at 1630 nM

Here is another compound to look at.
Record summary for COc1cccc(/C=N/NC(=S)NC2CC3CCC2C3)c1O (centres undefined) : reported GI50 = 8500 nM
